Target: Recombinant human his-tagged IGF R extracellular domain protein (human) (UniProt P08069)
Test: SPR, Ab captured via anti-huIgG Fc, pH 7.4
# kon binned as Low: < 90000 M⁻¹ s⁻¹; Mid: ≥ 90000 M⁻¹ s⁻¹ and < 100000 M⁻¹ s⁻¹; High: ≥ 100000 M⁻¹ s⁻¹

binder | discrete_label
VRDN-02055 (antibody, V domains shown) VH: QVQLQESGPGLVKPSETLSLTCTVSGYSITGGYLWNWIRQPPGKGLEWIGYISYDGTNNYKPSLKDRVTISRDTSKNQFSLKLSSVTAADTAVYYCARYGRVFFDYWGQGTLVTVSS VL: DIVMTQSPLSLPVTPGEPASISCRSSQSIVHSNGNTYLQWYLQKPGQSPQLLIYKVSNRLYGVPDRFSGSGSGTDFTLKISRVEAEDVGVYYCFQGSHHPWTFGQGTKVEIK | Mid
VRDN-02013 (antibody, V domains shown) VH: QVQLQESGPGLVKPSETLSLTCTVSGYSITGGYLWNWIRQPPGKGLEWIGYHSYDGTNNYKPSLKDRVTISRDTSKNQFSLKLSSVTAADTAVYYCARYGRVFFDYWGQGTLVTVSS VL: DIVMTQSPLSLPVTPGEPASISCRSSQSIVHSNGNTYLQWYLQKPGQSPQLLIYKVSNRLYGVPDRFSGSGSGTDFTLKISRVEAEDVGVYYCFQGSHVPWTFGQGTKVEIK | Low
VRDN-02100 (antibody, human IgG1, kappa, V domains shown) VH: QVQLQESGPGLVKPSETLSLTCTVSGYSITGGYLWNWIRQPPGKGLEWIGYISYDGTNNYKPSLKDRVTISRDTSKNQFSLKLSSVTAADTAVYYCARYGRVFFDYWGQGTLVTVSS VL: DIVMTQSPLSLPVTPGEPASISCRSSQSIVHSNGNTYLQWYLQKPGQSPQLLIYKVSNRLYGVPDRFSGSGSGTDFTLKISRVEAEDVGVYYCFQGSHVPWTFGQGTKVEIKR | High
VRDN-02030 (antibody, V domains shown) VH: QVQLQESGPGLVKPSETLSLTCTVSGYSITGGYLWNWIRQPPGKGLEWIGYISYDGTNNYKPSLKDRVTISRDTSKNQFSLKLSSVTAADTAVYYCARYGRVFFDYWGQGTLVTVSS VL: DIVMTQSPLSLPVTPGEPASISCRHSQSIVHSNGNTYLQWYLQKPGQSPQLLIYKVSNRLYGVPDRFSGSGSGTDFTLKISRVEAEDVGVYYCFQGSHVPWTFGQGTKVEIK | Low
VRDN-02060 (antibody, V domains shown) VH: QVQLQESGPGLVKPSETLSLTCTVSGYSITGGYLWNWIRQPPGKGLEWIGYISYHGTNNYKPSLKDRVTISRDTSKNQFSLKLSSVTAADTAVYYCARYGRVFFDYWGQGTLVTVSS VL: DIVMTQSPLSLPVTPGEPASISCRSHQSIVHSNGNTYLQWYLQKPGQSPQLLIYKVSNRLYGVPDRFSGSGSGTDFTLKISRVEAEDVGVYYCFQGSHVPWTFGQGTKVEIK | High

Task: # bin lookup: classify VRDN-02076 (antibody, V domains shown) VH: QVQLQESGPGLVKPSETLSLTCTVSGYSITGGYLWNWIRQPPGKGLEWIGYISYHGTNNYKPSLKDRVTISRDTSKNQFSLKLSSVTAADTAVYYCARHGRVFFDYWGQGTLVTVSS VL: DIVMTQSPLSLPVTPGEPASISCRSHQSIVHSNGNTYLQWYLQKPGQSPQLLIYKVSNRLYGVPDRFSGSGSGTDFTLKISRVEAEDVGVYYCFQGSHVPHTFGQGTKVEIK by its kon
Output: High

Source: patent US20240360227A1
